Known LOLPE percentage damage caused to the plant (five point scale) of a selection of compounds
- Test system: Lolium perenne (LOLPE)
- ASSAY PROCEDURE: Post-emergence efficacy, Lolium perenne
- Format: in vivo
- STATED CONDITIONS: post-emergence spray, 62.5 g/ha, evaluated after 13 days

Observe how each entry below is paired with its result.
COMPOUND: Cc1nc(COc2c(Cl)ccc(Cl)c2-c2c(O)c(C)nn(C)c2=O)cs1
TEST RESULT: 1 (1=0-19%)
--
COMPOUND: Cc1nn(C)c(=O)c(-c2c(Cl)ccc(Cl)c2OCc2cccnc2)c1O
TEST RESULT: 2 (2=20-39%)
--
COMPOUND: Cc1cnc(COc2c(Cl)ccc(Cl)c2-c2c(O)c(C)nn(C)c2=O)cn1
TEST RESULT: 1 (1=0-19%)
--
COMPOUND: Cc1nn(C)c(=O)c(-c2c(Cl)ccc(Cl)c2OCc2nccs2)c1O
TEST RESULT: 3 (3=40-59%)
--
COMPOUND: Cc1nc(COc2c(Cl)ccc(F)c2-c2c(O)c(C)nn(C)c2=O)cs1
TEST RESULT: 2 (2=20-39%)

Lab note: `Cc1nn(C)c(=O)c(-c2c(F)ccc(Cl)c2OCc2ccncc2)c1O` gave LOLPE percentage damage caused to the plant (five point scale) of 1 (1=0-19%)

Lab note: `Cc1nn(C)c(=O)c(-c2c(Cl)ccc(Cl)c2OCc2ccnc(Cl)c2)c1O` gave LOLPE percentage damage caused to the plant (five point scale) of 3 (3=40-59%)

Lab note: `Cc1nn(C)c(=O)c(-c2c(Cl)ccc(Cl)c2OCc2cncs2)c1O` gave LOLPE percentage damage caused to the plant (five point scale) of 4 (4=60-79%)

Lab note: `Cc1nn(C)c(=O)c(-c2c(F)ccc(Cl)c2OCc2cccnc2)c1O` gave LOLPE percentage damage caused to the plant (five point scale) of 2 (2=20-39%)

Lab note: `Cc1nn(C)c(=O)c(-c2c(F)ccc(Cl)c2OCc2nccs2)c1O` gave LOLPE percentage damage caused to the plant (five point scale) of 4 (4=60-79%)

Lab note: `Cc1nn(C)c(=O)c(-c2c(Cl)ccc(Cl)c2OCc2ccncc2)c1O` gave LOLPE percentage damage caused to the plant (five point scale) of 1 (1=0-19%)

Lab note: CC1=NN(C)C(=O)C(c2c(Cl)ccc(Cl)c2OCc2cnc(Cl)s2)C1=O (stereo not drawn) gave LOLPE percentage damage caused to the plant (five point scale) of 5 (5=80-100%)

Lab note: `Cc1nn(C)c(=O)c(-c2c(Cl)c(Cl)cc(Cl)c2OCc2cnc(Cl)s2)c1O` gave LOLPE percentage damage caused to the plant (five point scale) of 2 (2=20-39%)

Lab note: `Cc1csc(COc2c(Cl)ccc(F)c2-c2c(O)c(C)nn(C)c2=O)n1` gave LOLPE percentage damage caused to the plant (five point scale) of 3 (3=40-59%)

Lab note: `Cc1csc(COc2c(Cl)ccc(Cl)c2-c2c(O)c(C)nn(C)c2=O)n1` gave LOLPE percentage damage caused to the plant (five point scale) of 2 (2=20-39%)

###

- Test system: Amaranthus retroflexus (AMARE)
- ASSAY PROCEDURE: Post-emergence efficacy, Amaranthus retroflexus
- Format: in vivo
- STATED CONDITIONS: post-emergence spray, 62.5 g/ha, evaluated after 13 days
- Experimental: B1 Post-Emergence Efficacy Seeds of a variety of test species are shown in standard soil in pots:—Solanum nigrum (SOLNI), Amaranthus retroflexus (AMARE), Setaria faberi (SETFA), Echinochloa crus-galli (ECHCG), Ipomoea hederacea (IPOHE), Lolium perenne (LOLPE). […] After 13 days, the test is evaluated for the percentage damage caused to the plant. The biological activities are assessed on a five point scale (5=80-100%; 4=60-79%; 3=40-59%; 2=20-39%; 1=0-19%).
REPORTED METRIC: AMARE percentage damage caused to the plant (five point scale)

Lab note: `Cc1csc(COc2c(Cl)ccc(Cl)c2-c2c(O)c(C)nn(C)c2=O)n1` gave AMARE percentage damage caused to the plant (five point scale) of 3 (3=40-59%)

Lab note: `Cc1nn(C)c(=O)c(-c2c(F)ccc(Cl)c2OCc2cccnc2)c1O` gave AMARE percentage damage caused to the plant (five point scale) of 4 (4=60-79%)

Lab note: `Cc1nc(COc2c(Cl)ccc(Cl)c2-c2c(O)c(C)nn(C)c2=O)cs1` gave AMARE percentage damage caused to the plant (five point scale) of 3 (3=40-59%)

Lab note: `Cc1csc(COc2c(Cl)ccc(F)c2-c2c(O)c(C)nn(C)c2=O)n1` gave AMARE percentage damage caused to the plant (five point scale) of 4 (4=60-79%)
